Biological target: Hfq(2-69:R16A) (Escherichia coli, UniProt P0A6X3 2-69, R16A)
Experiment: fluorescence polarization
pKd: −log10 of the molar value.
PROPERTY MEASURED: pKd

{"BINDER": "xtal DNA, 30 bp with three 6-bp A-tracts (dsDNA) DNA 1: CGGCAAAAAACGGCAAAAAACGGCAAAAAA DNA 2: TTTTTTGCCGTTTTTTGCCGTTTTTTGCCG", "PROPERTY MEASURED": "pKd", "VALUE OBSERVED": 7.47}
